Numbers sourced from ChEMBL document CHEMBL2057084.

Test: Apparent permeability across apical to basolateral side in human Caco2 cells
Format: ADME, cell-based
Conditions: Caco-2
MEASURED QUANTITY: Papp A→B (nm/s)

Worked examples follow.
Br.N=C(N)SCc1cc(F)cc2c1sc1c(CSC(=N)N)cc(Cl)cc12 ... 5
Br.N=C(N)SCc1cccc2c1sc1c(CSC(=N)N)c(Br)ccc12 ... 13
Br.N=C(N)SCc1cc(F)ccc1Sc1ccc(F)cc1CSC(=N)N ... 4

1. Br.N=C(N)SCc1cc(F)ccc1Sc1ccc(C(F)(F)F)cc1CSC(=N)N
2. Br.COc1ccc(Sc2ccc(F)cc2CSC(=N)N)c(CSC(=N)N)c1
3. N=C(N)SCc1cccc2cc3cccc(CSC(=N)N)c3nc12
Sort the compounds on Papp A→B; start with the lowest figure. Your task in answering is to list the labels in the requested order.
1, 3, 2
